# pIC50 per entry for α-Glucosidase from Saccharomyces cerevisiae (Saccharomyces cerevisiae, UniProt P53341)
Lab note — pIC50 values are minus log10 of concentrations in M.

Name the recorded pIC50 for O=C(/C=C/c1ccc(O)c(O)c1)O[C@H]1[C@H](O)C[C@](O)(C(=O)O)C[C@H]1O [Compound 4-O-CQA, 4-O-Caffeoylquinic acid] .
2.99

Please report the recorded pIC50 for O=C(/C=C/c1ccc(O)c(O)c1)OC1(C(=O)O)C[C@@H](O)C(O)[C@H](O)C1 (some centres unmarked) [Compound 1-O-CQA] .
2.91

Query: pIC50; subject: O=C(/C=C/c1ccc(O)c(O)c1)O[C@@H]1[C@H](O)C[C@@](O)(C(=O)O)C[C@H]1OC(=O)/C=C/c1ccc(O)c(O)c1 [4,5-Di-O-CQA, 4,5-Di-O-caffeoylquinic acid]
4.21

Endpoint output: pIC50 of O=C(C=Cc1ccc(O)c(O)c1)OC1CC(OC(=O)C=Cc2ccc(O)c(O)c2)(C(=O)O)CC(O)C1O (centres unmarked) [1,5-Di-O-CQA, 1,5-Di-O-caffeoylquinic acid] . Value?
3.12

// query pIC50 value for entry O=C(/C=C/c1ccc(O)c(O)c1)OC1CC(O)(C(=O)O)CC(O)C1OC(=O)/C=C/c1ccc(O)c(O)c1 (centres unmarked) [3,4-Di-O-CQA, 3,4-Di-O-caffeoylquinic acid]
3.68

Dear colleague, I am looking for the recorded pIC50 of the following molecule: O=C(/C=C/c1ccc(O)c(O)c1)OC1[C@H](OC(=O)/C=C/c2ccc(O)c(O)c2)CC(O)(C(=O)O)C[C@H]1OC(=O)/C=C/c1ccc(O)c(O)c1 (some centres unmarked) [3,4,5-Tri-O-CQA]
4.21

Record request: pIC50 value, item O=C(/C=C/c1ccc(O)c(O)c1)OC1CC(OC(=O)/C=C/c2ccc(O)c(O)c2)(C(=O)O)CC(O)C1O (centres unmarked) [1,3-Di-O-CQA, 1,3-Di-O-caffeoylquinic acid]
3.01

// query pIC50 value for entry O=C(/C=C/c1ccc(O)c(O)c1)OC1CC(O)(C(=O)O)CC(OC(=O)/C=C/c2ccc(O)c(O)c2)C1O (centres unmarked) [3,5-Di-O-CQA, 3,5-Di-O-caffeoylquinic acid]
3.73

Data credit: paper PMC6052120
